assay: T. gondii ME49Luc in HeLa cells, luciferase assay, 72 h, no IFN-y (AID 1259421); settings: concentration not given here
Among all 6,400 compounds or so, about 610 (9.5%) were called active. No stated cut-off is given here; in the data, active means activity change below about -70%; inconclusive means no clear call, values can overlap the other calls; inactive means above that. Many of the other results were omitted from the sample, so actives are more common in it than they were.
In this exercise, the only acceptable responses are active, inactive

- compound: "Cc1ccc2c(=O)c3cccc(CC(=O)O)c3oc2c1C"
  cat: "inactive"

## Task Could you please tell me the result logged for CC12C(=O)OC(=O)C1(C)C1CCC2O1 (stereo not given) in this assay?
## Result active

## Task Queued: CCCC(CCC)C(=O)OC1C[C@H]2CC[C@@H](C1)[N+]2(C)C (stereo not given in full)
## Result inactive

## Task Likewise for `C=C[C@@](C)(/C=C/c1ccc(O)cc1)CCC=C(C)C` ?
## Result inactive

## Task Now this one: `COc1ccc(Cc2cnc(N)nc2N)cc1OC`
## Result inactive

## Task Thanks! And `CNC(=O)c1c(-c2ccc(F)cc2)oc2cc(N(CCO)S(C)(=O)=O)c(C3CC3)cc12` ?
## Result inactive

## Task Again, but for `CC(C)C(=O)OC[C@@]1(N=[N+]=[N-])O[C@@H](n2ccc(N)nc2=O)[C@H](OC(=O)C(C)C)[C@@H]1OC(=O)C(C)C`
## Result inactive

## Task What would you report for CCCCN(CCCC)CCC(O)c1cc2c(Cl)cc(Cl)cc2c2cc(C(F)(F)F)ccc12 (stereo not given) ?
## Result active

## Task Same read-out for `C[C@@H]1CCCN1CCc1cc2cc(-c3ccc(C#N)cc3)ccc2o1` ?
## Result inactive

## Task Please answer likewise for `CS(=O)(=O)Nc1cc2occ(NC=O)c(=O)c2cc1Oc1ccccc1`
## Result inactive

====

The following molecules are listed with their measured activity change, negative = inhibition values.
assay: T. gondii ME49Luc in HeLa cells, luciferase assay, 72 h, no IFN-y (AID 1259421); conditions: active compounds read low, concentration not given here
Hit rate of the full screen: of about 6,400 compounds, about 610 (9.5%) were called active. The sample as a whole holds a higher share of actives than the screen did.
Kindly provide the numeric value in % only, without the unit symbol.

# example entries with known answers
- molecule: "COC[C@@H](c1ccc(C(F)(F)F)cc1)N1CCN(C2(C)CCN(C(=O)c3c(C)ncnc3C)CC2)C[C@@H]1C"
  measured.parameter: "activity change, negative = inhibition"
  observed.result: 5.59
- molecule: "CO[C@@H]1[C@@H](O[C@@H]2O[C@H](C)[C@@H](O[C@H]3C[C@@](C)(OC(=O)CC(C)C)[C@@H](O)[C@H](C)O3)[C@H](N(C)C)[C@H]2O)[C@@H](CC=O)C[C@@H](C)[C@@H](O)/C=C/C=C/C[C@@H](C)OC(=O)C[C@H]1OC(C)=O"
  measured.parameter: "activity change, negative = inhibition"
  observed.result: -10.6
- molecule: "CCC[C@@H](NC(=O)N1C(=O)C(CC)(CC)[C@@H]1Oc1ccc(C(=O)N2CCN(C)CC2)cc1)c1ccc2c(c1)OCO2"
  measured.parameter: "activity change, negative = inhibition"
  observed.result: 4.37

## Task State the recorded activity change, negative = inhibition for this entry: `CO[C@H]1C[C@H]2CC[C@@H](C)[C@@](O)(O2)C(=O)C(=O)N2CCCC[C@H]2C(=O)O[C@H]([C@H](C)C[C@@H]2CC[C@H](OC(=O)C(C)(CO)CO)[C@H](OC)C2)CC(=O)[C@H](C)/C=C(\C)[C@@H](O)[C@@H](OC)C(=O)[C@H](C)C[C@H](C)/C=C/C=C/C=C/1C`
## Result 9.08

## Task Could you do the same for `Cc1cc(N2CCOCC2)ccc1Nc1nc(NC2CCCCC2)c2[nH]cnc2n1` , please?
## Result -50.9

## Task Try `Cc1occc(=O)c1CC=O` next.
## Result 1.36

## Task // next record `O=C(NCc1cccc(O)c1)Nc1nc(-c2ccncc2)cs1`
## Result -70.8

## Task Next up: `N[C@@H]1CCN(O)C1=O`
## Result 15

====

experiment: T. gondii ME49Luc in HeLa cells, luciferase assay, 72 h, no IFN-y (AID 1259421); conditions: concentration not given here
Out of some 6,400 compounds screened, about 610 (9.5%) were called active. No stated cut-off is given here; in the data, active means activity change below about -70%; inconclusive means no clear call, values can overlap the other calls; inactive means above that. This is one part of a sample in which actives are shown more often than they occur.
Log the outcome using a class from yes (1) (active), no (0) (inactive)

Reference set, count: 6
- molecule: "COc1ccc(-c2coc3cc(O)ccc3c2=O)c(O)c1O"
  cat: "no (0)"
- molecule: "C(=N\\NC1=NCCN1)/c1c2ccccc2c(/C=N/NC2=NCCN2)c2ccccc12"
  cat: "no (0)"
- molecule: "COc1c(-c2coc3cc4c(cc3c2=O)CC(O)C(C)(C)O4)ccc2c1C=CC(C)(C)O2 (stereo not given)"
  cat: "yes (1)"
- molecule: "NCCCCCc1cnc[nH]1"
  cat: "no (0)"
- molecule: "CCOc1ccc(-n2c([C@@H](C)N(Cc3cccnc3)C(=O)Cc3ccc(OC(F)(F)F)cc3)nc3ncccc3c2=O)cc1"
  cat: "no (0)"
- molecule: "C[C@H]1CC2C3CCC4=CC(=O)C=C[C@]4(C)[C@@]3(F)[C@@H](O)C[C@]2(C)[C@@]1(O)C(=O)COP(=O)(O)O (stereo not given in full)"
  cat: "no (0)"

## Task Per the assay record, what outcome was assigned to `CCCCCCCCCCCC[C@H](C(=O)O)[C@@H](C)C(=O)O` ?
## Result no (0)

## Task Please answer likewise for `CC[C@H](C)[C@H](NC(=O)[C@H](Cc1ccc(O)cc1)NC(=O)[C@@H](NC(=O)[C@H](CCCN=C(N)N)NC(=O)[C@@H](N)CC(=O)O)C(C)C)C(=O)N[C@@H](Cc1cnc[nH]1)C(=O)N1CCC[C@H]1C(=O)O`
## Result no (0)

## Task Please give the result for COc1c(-c2coc3cc4c(cc3c2=O)CC(OC(C)=O)C(C)(C)O4)ccc2c1C=CC(C)(C)O2 (stereo not given) too.
## Result yes (1)

## Task Then what about the molecule NCCCC(N)(C(=O)O)C(F)F (stereo not given) ?
## Result no (0)

====

assay: T. gondii ME49Luc in HeLa cells, luciferase assay, 72 h, no IFN-y (AID 1259421); settings: active compounds read low, concentration not given here
Hit rate of the full screen: of about 6,400 compounds, about 610 (9.5%) were called active. For the sample, actives were picked, then their nearest neighbours and some compounds at random.
measured.parameter: activity change, negative = inhibition (%)
Your answer is read as %, so omit the unit and give the number.

Some molecules with known activity change, negative = inhibition results, for comparison:
- molecule: "CCC[C@@H]1C[C@@H](C(=O)N[C@@H](C2O[C@H](SC)[C@H](O)[C@@H](O)[C@H]2O)[C@H](C)Cl)N(C)C1 (stereo not given in full)"
  value.unit: "%"
  activity change, negative = inhibition: -0.424
- molecule: "O=c1c2cc(O)c(O)cc2oc2cc(O)c(C3O[C@H](CO)[C@H](O)[C@@H](O)[C@H]3O)c(O)c12 (stereo not given in full)"
  value.unit: "%"
  activity change, negative = inhibition: 3.15
- molecule: "COc1ccc(NC(=O)c2ccc(C(=N)N(C)C)cc2)c(C(=O)Nc2ccc(Cl)cn2)c1"
  value.unit: "%"
  activity change, negative = inhibition: -0.285
- molecule: "O=C(NO)c1cnc(N2CCN(S(=O)(=O)c3ccc4ccccc4c3)CC2)nc1"
  value.unit: "%"
  activity change, negative = inhibition: -82.9
- molecule: "NCC(=O)CCC(=O)OCc1ccccc1"
  value.unit: "%"
  activity change, negative = inhibition: 16.4

## Task # get_value(readout='activity change, negative = inhibition', item= `O=[Si]=O` )
## Result 10.7

## Task Param item: `CC1=CC(=O)CC(C)(C)[C@@]1(O)/C=C/C(C)=C\C(=O)O`
## Result 0.0395

## Task Continue with CNC(=O)C1OC(n2cnc3c(NCc4cccc(I)c4)ncnc32)C(O)C1O (stereo not given)
## Result 5.36

## Task Try this molecule too: `COc1ccccc1N1CCN(CCCCNC(=O)c2ccc3ccccc3c2)CC1`
## Result -12.8

## Task Same for CC(=O)OCC(=O)[C@@]1(O)CCC2C3CCC4=CC(=O)C=C[C@]4(C)[C@@]3(F)[C@@H](O)C[C@@]21C (stereo not given in full)
## Result -18.2

## Task // same read-out, input: `Clc1ccc(N/N=C(\c2ccccc2)c2ccccn2)nc1`
## Result 31.4

## Task Also, `CC[C@H](C)n1cc(C)c2c(C(=O)NCc3c(C)cc(C)[nH]c3=O)cc(-c3ccc(N4CCNCC4)nc3)cc21` please.
## Result 1.27

## Task Next entry: `COc1ccc(C(=O)Nc2c(Cl)cncc2Cl)cc1OC1CCCC1`
## Result 3.75
